measured-on: T1, TTD (residues 134–285) of UHRF1 (Homo sapiens, UniProt Q96T88)
T1 construct: TTD (residues 134–285); GST (N, cleaved yes); made in house; host or cells: E. coli BL21 (DE3)
T1 sequence (Q96T88 134-285): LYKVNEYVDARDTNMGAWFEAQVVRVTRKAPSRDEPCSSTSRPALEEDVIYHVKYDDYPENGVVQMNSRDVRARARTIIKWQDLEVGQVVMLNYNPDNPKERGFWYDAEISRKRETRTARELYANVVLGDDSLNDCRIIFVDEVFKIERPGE
assay-protocol: ITC, TTD titrated into Spacer variants and other UHRF1 fragments
Type: binding
condition-set: ITC stoichiometry, TTD in syringe
Collected N values appear next to each entry.

molecule: SpacerS651D: mutation S651D of the Spacer (protein, left off: GST, end not stated, cleaved, mutation S651D of the Spacer) PGPWTKEGKDRIKKLGLTMQYPEGYLEALANREREKENSKREEEEQQEGGFASPRTGKGKWKRKDAGGGPSRAGSPRRTSKKTKVEPY
N: 0.998
--
molecule: Spacer∆660-664: internal deletion of the Spacer, residues 660–664 (protein, left off: GST, end not stated, cleaved) PGPWTKEGKDRIKKLGLTMQYPEGYLEALANREREKENSKREEEEQQEGGFASPRTGKGKWKRKSAGGGPSRATSKKTKVEPY
N: 1.01
--
molecule: Spacer∆655-659: internal deletion of the Spacer, residues 655–659 (protein, left off: GST, end not stated, cleaved) PGPWTKEGKDRIKKLGLTMQYPEGYLEALANREREKENSKREEEEQQEGGFASPRTGKGKWKRKSAGGGSPRRTSKKTKVEPY
N: 0.988
